Target: D(3) dopamine receptor (Homo sapiens) (UniProt P35462)
Sequence (P35462 whole entry, looked up): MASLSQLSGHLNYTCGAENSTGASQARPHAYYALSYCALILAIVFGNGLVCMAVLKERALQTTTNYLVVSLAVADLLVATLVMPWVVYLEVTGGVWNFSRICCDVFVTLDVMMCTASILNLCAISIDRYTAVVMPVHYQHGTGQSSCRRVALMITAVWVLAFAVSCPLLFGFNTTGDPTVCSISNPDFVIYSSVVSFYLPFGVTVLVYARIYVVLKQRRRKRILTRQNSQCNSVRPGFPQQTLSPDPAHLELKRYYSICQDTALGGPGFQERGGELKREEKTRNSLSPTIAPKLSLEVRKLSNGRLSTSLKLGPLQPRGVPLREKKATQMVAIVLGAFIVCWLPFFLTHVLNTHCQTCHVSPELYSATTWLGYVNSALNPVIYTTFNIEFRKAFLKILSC
Assay: Binding affinity against Dopamine receptor D3 by using [3H]- radioligand
experimental_readout: Ki 0.5 (µM)
State the answer as a number, implicitly in µM.

>  <molecule>
CN(C)[C@@H]1CCc2ccccc2[C@@H](c2ccccc2)C1

>  <output_unit>
µM

>  <Ki 0.5>
1

$$$$
>  <molecule>
CN(C)[C@H]1Cc2ccccc2[C@@](C)(c2ccccc2)C1

>  <output_unit>
µM

>  <Ki 0.5>
1

$$$$
>  <molecule>
CN(C)[C@@H]1Cc2ccccc2[C@@H](c2ccccc2)C1 (stereo in doubt; 2)

>  <output_unit>
µM

>  <Ki 0.5>
1

$$$$
>  <molecule>
CN(C)[C@@H]1Cc2ccccc2[C@@H](c2ccccc2)C1 (stereo in doubt; (+)-2)

>  <output_unit>
µM

>  <Ki 0.5>
1

$$$$

Now consider the entry below.
Could you share which Ki 0.5 value was measured for CN(C)[C@@H]1Cc2cc(Cl)c(O)cc2[C@@H](c2ccccc2)C1 ?
0.3

---

Measured Ki 0.5 of individual entries
Target: UniProtKB P18901
Assay: Binding affinity against Dopamine receptor D1 by using [3H]SCH-23390 as radioligand

Reference set (3 entries):
>  <compound>
CN(C)[C@@H]1CCc2ccccc2[C@@H](c2ccccc2)C1

>  <target>
UniProtKB P18901

>  <Ki 0.5>
> 5000 nM

$$$$
>  <compound>
CN(C)[C@@H]1CCc2ccccc2[C@H]1c1ccccc1

>  <target>
UniProtKB P18901

>  <Ki 0.5>
> 5000 nM

$$$$
>  <compound>
c1ccc(CCCCN[C@@H]2Cc3ccccc3[C@@H](c3ccccc3)C2)cc1

>  <target>
UniProtKB P18901

>  <Ki 0.5>
1530 nM

$$$$

Now consider the entry below.
Could you share which Ki 0.5 value was measured for C[N+](C)(C)[C@@H]1Cc2ccccc2[C@@H](c2ccccc2)C1 ?
> 5000 nM

---

Measured Ki 0.5 of individual entries
Assay: Binding affinity against Sigma receptor type 3 by using [3H]-(-)-H2-PAT as radioligand
Details: Rattus norvegicus

>  <compound>
CN(C)[C@@H]1Cc2cc(Cl)c(O)cc2[C@@H](c2ccccc2)C1

>  <Ki 0.5>
0.3 nM

$$$$
>  <compound>
C[N+](C)(C)[C@@H]1Cc2ccccc2[C@@H](c2ccccc2)C1

>  <Ki 0.5>
35 nM

$$$$
>  <compound>
CN(C)[C@@H]1Cc2ccccc2[C@@H](c2ccccc2)C1 (stereo in doubt; (-)-2)

>  <Ki 0.5>
0.5 nM

$$$$

Could you share which Ki 0.5 value was measured for CN(C)[C@@H]1CCc2ccccc2[C@@H]1c1ccccc1 ?
1300 nM

Could you share which Ki 0.5 value was measured for CN(C)[C@@H]1Cc2ccccc2[C@@H](c2ccccc2)C1 (stereo in doubt; (+)-2) ?
13.5 nM

Could you share which Ki 0.5 value was measured for CN(CCc1ccccc1)[C@@H]1Cc2ccccc2[C@@H](c2ccccc2)C1 ?
150 nM

Could you share which Ki 0.5 value was measured for CN(CCCc1ccccc1)[C@@H]1Cc2ccccc2[C@@H](c2ccccc2)C1 ?
300 nM

Could you share which Ki 0.5 value was measured for CN(C)[C@@H]1CCc2ccccc2[C@@H](c2ccccc2)C1 ?
21.8 nM

Could you share which Ki 0.5 value was measured for CN(C)[C@@H]1Cc2ccccc2[C@@](C)(c2ccccc2)C1 ?
18.2 nM

Could you share which Ki 0.5 value was measured for c1ccc(CCCCN[C@@H]2Cc3ccccc3[C@@H](c3ccccc3)C2)cc1 ?
1050 nM

Could you share which Ki 0.5 value was measured for CN[C@@H]1Cc2ccccc2[C@@H](c2ccccc2)C1 ?
120 nM

Could you share which Ki 0.5 value was measured for CN(C)[C@@H]1Cc2ccccc2[C@H](c2ccccc2)C1 ?
74 nM

---

Target: D(2) dopamine receptor (Rattus norvegicus) (UniProt P61169)
Sequence (P61169 whole entry): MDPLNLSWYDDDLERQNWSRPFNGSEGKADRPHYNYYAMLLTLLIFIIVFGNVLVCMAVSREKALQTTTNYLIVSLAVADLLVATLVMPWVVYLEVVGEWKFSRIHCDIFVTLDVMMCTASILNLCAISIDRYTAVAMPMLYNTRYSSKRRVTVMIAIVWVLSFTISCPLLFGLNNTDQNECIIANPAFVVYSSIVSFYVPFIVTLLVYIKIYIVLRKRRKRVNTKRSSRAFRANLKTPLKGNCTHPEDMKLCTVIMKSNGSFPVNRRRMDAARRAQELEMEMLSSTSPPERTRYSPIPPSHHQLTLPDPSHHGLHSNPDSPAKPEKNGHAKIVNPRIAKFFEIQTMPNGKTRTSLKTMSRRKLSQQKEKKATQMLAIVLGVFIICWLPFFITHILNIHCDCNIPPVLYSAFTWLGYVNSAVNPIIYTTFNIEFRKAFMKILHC
Assay: Binding affinity against Dopamine receptor D2 by using [3H]- radioligand
experimental_readout: Ki 0.5 (µM)
State the answer as a number, implicitly in µM.

Could you share which Ki 0.5 value was measured for c1ccc(CCCCN[C@@H]2Cc3ccccc3[C@@H](c3ccccc3)C2)cc1 ?
1.6

Could you share which Ki 0.5 value was measured for CN(C)[C@@H]1CCc2ccccc2[C@@H](c2ccccc2)C1 ?
5

Could you share which Ki 0.5 value was measured for c1ccc(CCCN[C@@H]2Cc3ccccc3[C@@H](c3ccccc3)C2)cc1 ?
5

Could you share which Ki 0.5 value was measured for CN(C)[C@@H]1Cc2ccccc2[C@@H](c2ccccc2)C1 (stereo in doubt; 2) ?
5

---

Measured Ki 0.5 of individual entries
Molecular target: D(2) dopamine receptor (Rattus norvegicus)
Assay: Binding affinity against Dopamine receptor D2 by using [3H]- radioligand

Reference set (5 entries):
>  <compound>
CN(C)[C@@H]1Cc2ccccc2[C@@H](c2ccccc2)C1 (stereo in doubt; (+)-2)

>  <target>
D(2) dopamine receptor (Rattus norvegicus)

>  <experimental_readout>
Ki 0.5

>  <value_observed>
> 5000 nM

$$$$
>  <compound>
CN(CCCc1ccccc1)[C@@H]1Cc2ccccc2[C@@H](c2ccccc2)C1

>  <target>
D(2) dopamine receptor (Rattus norvegicus)

>  <experimental_readout>
Ki 0.5

>  <value_observed>
540 nM

$$$$
>  <compound>
CN(C)[C@H]1Cc2ccccc2[C@@](C)(c2ccccc2)C1

>  <target>
D(2) dopamine receptor (Rattus norvegicus)

>  <experimental_readout>
Ki 0.5

>  <value_observed>
> 5000 nM

$$$$
>  <compound>
C[N+](C)(C)[C@@H]1Cc2ccccc2[C@@H](c2ccccc2)C1

>  <target>
D(2) dopamine receptor (Rattus norvegicus)

>  <experimental_readout>
Ki 0.5

>  <value_observed>
> 2500 nM

$$$$
>  <compound>
CN(CCCCc1ccccc1)[C@@H]1Cc2ccccc2[C@@H](c2ccccc2)C1

>  <target>
D(2) dopamine receptor (Rattus norvegicus)

>  <experimental_readout>
Ki 0.5

>  <value_observed>
240 nM

$$$$

Could you share which Ki 0.5 value was measured for CN(C)[C@@H]1Cc2ccccc2[C@@H](c2ccccc2)C1 (stereo in doubt; (-)-2) ?
> 5000 nM

Could you share which Ki 0.5 value was measured for CN(CCc1ccccc1)[C@@H]1Cc2ccccc2[C@@H](c2ccccc2)C1 ?
370 nM

Could you share which Ki 0.5 value was measured for CN(C)[C@@H]1CCc2ccccc2[C@@H]1c1ccccc1 ?
> 5000 nM

Could you share which Ki 0.5 value was measured for CN(C)[C@@H]1Cc2ccccc2[C@@](C)(c2ccccc2)C1 ?
> 5000 nM

Could you share which Ki 0.5 value was measured for CN(C)[C@H]1CCc2ccccc2[C@H](c2ccccc2)C1 ?
> 5000 nM

---

Target: D(1A) dopamine receptor (Rattus norvegicus) (UniProt P18901)
Sequence (P18901 whole entry): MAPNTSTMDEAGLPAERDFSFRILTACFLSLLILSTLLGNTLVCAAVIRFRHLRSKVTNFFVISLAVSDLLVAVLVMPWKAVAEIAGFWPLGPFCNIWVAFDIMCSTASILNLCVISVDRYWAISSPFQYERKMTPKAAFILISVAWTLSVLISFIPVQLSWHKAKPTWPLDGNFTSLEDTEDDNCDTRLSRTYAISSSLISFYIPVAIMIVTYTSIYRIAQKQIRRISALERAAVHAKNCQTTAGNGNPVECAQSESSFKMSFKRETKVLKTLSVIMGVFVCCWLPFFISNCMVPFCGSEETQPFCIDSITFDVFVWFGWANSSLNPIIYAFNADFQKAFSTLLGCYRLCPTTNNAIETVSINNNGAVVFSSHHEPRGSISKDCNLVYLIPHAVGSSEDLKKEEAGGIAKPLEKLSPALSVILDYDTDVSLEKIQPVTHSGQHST
Test: Binding affinity against Dopamine receptor D1 by using [3H]SCH-23390 as radioligand
experimental_readout: Ki 0.5

Reference set (3 entries):
>  <compound>
CN(C)[C@@H]1Cc2ccccc2[C@@H](c2ccccc2)C1 (stereo in doubt; (+)-2)

>  <Ki 0.5>
> 5 µM

$$$$
>  <compound>
CN[C@@H]1Cc2ccccc2[C@@H](c2ccccc2)C1

>  <Ki 0.5>
> 5 µM

$$$$
>  <compound>
CN(C)[C@@H]1Cc2ccccc2[C@@H](c2ccccc2)C1 (stereo in doubt; (-)-2)

>  <Ki 0.5>
> 5 µM

$$$$

Could you share which Ki 0.5 value was measured for CN(CCCCc1ccccc1)[C@@H]1Cc2ccccc2[C@@H](c2ccccc2)C1 ?
0.44 µM

Could you share which Ki 0.5 value was measured for CN(C)[C@H]1Cc2ccccc2[C@@](C)(c2ccccc2)C1 ?
> 2.5 µM

---

Assay: Binding affinity against Sigma receptor type 3 by using [3H]-(-)-H2-PAT as radioligand
Conditions: Rattus norvegicus
Kindly apply the following: Met if Ki 0.5 is less than 2 nM, Not met in every other case.

Is Ki 0.5 strictly under 2 nM for the entry c1ccc(CCCN[C@@H]2Cc3ccccc3[C@@H](c3ccccc3)C2)cc1 ?
Not met

Is Ki 0.5 strictly under 2 nM for the entry CN(C)[C@H]1Cc2ccccc2[C@@](C)(c2ccccc2)C1 ?
Not met

Is Ki 0.5 strictly under 2 nM for the entry CN(C)[C@@H]1CCc2ccccc2[C@H]1c1ccccc1 ?
Not met

Is Ki 0.5 strictly under 2 nM for the entry CN(C)[C@@H]1Cc2ccccc2[C@@H](c2ccccc2)C1 (stereo in doubt; 2) ?
Met

Is Ki 0.5 strictly under 2 nM for the entry CN(CCCCc1ccccc1)[C@@H]1Cc2ccccc2[C@@H](c2ccccc2)C1 ?
Not met

Is Ki 0.5 strictly under 2 nM for the entry CN(C)[C@H]1CCc2ccccc2[C@H](c2ccccc2)C1 ?
Not met

---

Target: D(1A) dopamine receptor (Rattus norvegicus) (UniProt P18901)
Test: Binding affinity against Dopamine receptor D1 by using [3H]SCH-23390 as radioligand
experimental_readout: Ki 0.5 (nM)
State the answer as a number, implicitly in nM.

Reference set (2 entries):
>  <compound>
CN(CCc1ccccc1)[C@@H]1Cc2ccccc2[C@@H](c2ccccc2)C1

>  <target>
D(1A) dopamine receptor (Rattus norvegicus) (UniProt P18901)

>  <experimental_readout>
Ki 0.5

>  <output_unit>
nM

>  <value_observed>
54

$$$$
>  <compound>
CN(CCCc1ccccc1)[C@@H]1Cc2ccccc2[C@@H](c2ccccc2)C1

>  <target>
D(1A) dopamine receptor (Rattus norvegicus) (UniProt P18901)

>  <experimental_readout>
Ki 0.5

>  <output_unit>
nM

>  <value_observed>
380

$$$$

Any idea what Ki 0.5 came out for CN(C)[C@@H]1Cc2ccccc2[C@@H](c2ccccc2)C1 (stereo in doubt; 2) on D(1A) dopamine receptor (Rattus norvegicus) (UniProt P18901)?
2500
